Entry source: PubChem BioAssay (NCI)

# System: SF-539 CNS
# test.description: NCI tumour cell line growth inhibition, 48 h
# TGI per entry

Field: example entries. Status: answers known.
compound	measured.target	TGI
O=C(c1cccs1)c1c(C(F)(F)F)n([O-])c2ccc(Cl)cc2[n+]1=O	SF-539 CNS	0.568 µM
N#Cc1nc(/C=C/c2nc(C#N)c(N)o2)oc1N	SF-539 CNS	> 10 µM
Cc1cc2nn(C3CCCO3)nc2cc1C (centres undefined)	SF-539 CNS	> 100 µM

Prompt line: Requested field: TGI. Item: COc1cccc(-n2ncc3c(N/N=C/c4cccc(F)c4)ncnc32)c1
Response line: > 25 µM

Prompt line: Reported TGI for CC(=O)O[C@H]1C(=O)[C@@]2(C)[C@H]([C@H](OC(=O)C3CCCCC3)[C@]3(O)C[C@H](OC(=O)[C@H](O)[C@@H](NC(=O)OC(C)(C)C)c4ccccc4)C(C)=C1C3(C)C)[C@]1(OC(C)=O)CO[C@@H]1C[C@@H]2O : what is it?
Response line: 0.0571 µM

Prompt line: Sample FC(F)(F)c1ccc(C2=N/S(c3ccccc3)=N\C(c3ccc(C(F)(F)F)cc3)=N/S(c3ccccc3)=N\2)cc1 (centres undefined) — what was its TGI?
Response line: > 100 µM

Prompt line: Form field: reported TGI of C/C(=N\NC(=O)c1ccccc1N)c1ccccc1O
Response line: > 100 µM

Prompt line: Name the recorded TGI for Cc1cccc(-c2cc(=O)c3cc(C)c(C)c(C(=O)O)c3o2)c1 .
Response line: > 100 µM

Prompt line: Quick check: TGI of Cc1ccc(/C(=C/C=C(/C#N)C(N)=O)Sc2ncnn2C)cc1 ?
Response line: 20.4 µM

---

# System: SR leukemia
# test.description: NCI tumour cell line growth inhibition, 48 h
Where a SMILES comes first, the peptide text is derived from it. [ ]: non-standard residue; d: D form. The star is where a group is joined. Phe(2-OMe) = COc1ccccc1C[CH](N)C(=O)O; Cbz = O=C(OCc1ccccc1)*; OBn = c1ccc(CO*)cc1
readout.name: TGI

compound	measured.target	readout.name	result
COC(=O)C(Cc1ccccc1OC)NC(=O)C(CC(=O)OCc1ccccc1)NC(=O)OCc1ccccc1 (stereo not drawn) (Cbz-Asp(OBn)-[Phe(2-OMe)]-OMe; configuration not given here)	SR leukemia	TGI	84.6 µM
C/C1=C\CC[C@@]2(C)O[C@@H]2C[C@@H]2[C@H](C/C(C)=C/CC1)OC(=O)C21CC1	SR leukemia	TGI	48 µM
c1ccc([P+](c2ccccc2)(c2ccccc2)c2ccc([P+](c3ccccc3)(c3ccccc3)c3ccccc3)c3ccccc23)cc1	SR leukemia	TGI	> 100 µM
NC(N)=N/N=C\c1c(-c2cccc([N+](=O)[O-])c2)nc2sc(Cl)cn12	SR leukemia	TGI	3.07 µM
O=C1C(=C2SC(c3ccccc3)(c3ccccc3)c3ccccc32)C(=O)c2ccccc21	SR leukemia	TGI	> 100 µM

Prompt line: Consider the compound O=C(Nc1ccc(Cl)cc1)/C(=C(/[O-])c1ccc(Br)cc1)[n+]1cccc(-c2ccc(Cl)cc2)n1 and give its measured TGI.
Response line: > 100 µM

Prompt line: Entry under review: COc1ccc2cc(C(=O)NCCCNC(=O)c3ccc4c(OC)c(OC)ccc4c3)ccc2c1OC . Reported TGI?
Response line: > 100 µM

Prompt line: What does the data say about its TGI? Entry: O=C(O)c1ccccc1/C=C1\Cc2ccccc2C1=O
Response line: > 100 µM
